Data credit: BigSolDB 2.1

Details: in isopropanol, 323.15 K
measured_metric: solubility (mole fraction)
Would you mind answering with just the numeric figure?

Ask: // solubility (mole fraction) lookup, key: `C=CC(=O)N1CCC[C@@H](n2nc(-c3ccc(Oc4ccccc4)cc3)c3c(N)ncnc32)C1`
Reply: 0.00455

* * *

Details: in MTBE, 278.15 K
measured_metric: solubility (mole fraction)
Would you mind answering with just the numeric figure?

Ask: // solubility (mole fraction) lookup, key: `C=CC(=O)N1CCC[C@@H](n2nc(-c3ccc(Oc4ccccc4)cc3)c3c(N)ncnc32)C1`
Reply: 0.000225

* * *

Conditions: in 2-butanone, 313.15 K
measured_metric: solubility (mole fraction)
Would you mind answering with just the numeric figure?

Ask: // solubility (mole fraction) lookup, key: `C=CC(=O)N1CCC[C@@H](n2nc(-c3ccc(Oc4ccccc4)cc3)c3c(N)ncnc32)C1`
Reply: 0.0155

* * *

Details: in n-butanol, 323.15 K
measured_metric: solubility (mole fraction)
Would you mind answering with just the numeric figure?

Ask: // solubility (mole fraction) lookup, key: `C=CC(=O)N1CCC[C@@H](n2nc(-c3ccc(Oc4ccccc4)cc3)c3c(N)ncnc32)C1`
Reply: 0.0115

* * *

Details: in acetone, 298.15 K
measured_metric: solubility (mole fraction)
Would you mind answering with just the numeric figure?

Ask: // solubility (mole fraction) lookup, key: `C=CC(=O)N1CCC[C@@H](n2nc(-c3ccc(Oc4ccccc4)cc3)c3c(N)ncnc32)C1`
Reply: 0.00673

* * *

Conditions: in acetonitrile, 298.15 K
measured_metric: solubility (mole fraction)

Ask: // solubility (mole fraction) lookup, key: `C=CC(=O)N1CCC[C@@H](n2nc(-c3ccc(Oc4ccccc4)cc3)c3c(N)ncnc32)C1`
Reply: 0.00143

* * *

Details: in ethyl acetate, 293.15 K
measured_metric: solubility (mole fraction)
Would you mind answering with just the numeric figure?

Ask: // solubility (mole fraction) lookup, key: `C=CC(=O)N1CCC[C@@H](n2nc(-c3ccc(Oc4ccccc4)cc3)c3c(N)ncnc32)C1`
Reply: 0.00475

* * *

Conditions: in MTBE, 318.15 K
measured_metric: solubility (mole fraction)
Would you mind answering with just the numeric figure?

Ask: // solubility (mole fraction) lookup, key: `C=CC(=O)N1CCC[C@@H](n2nc(-c3ccc(Oc4ccccc4)cc3)c3c(N)ncnc32)C1`
Reply: 0.000497

* * *

Settings: in MTBE, 283.15 K
measured_metric: solubility (mole fraction)
Would you mind answering with just the numeric figure?

Ask: // solubility (mole fraction) lookup, key: `C=CC(=O)N1CCC[C@@H](n2nc(-c3ccc(Oc4ccccc4)cc3)c3c(N)ncnc32)C1`
Reply: 0.000244

* * *

Conditions: in ethyl acetate, 298.15 K
measured_metric: solubility (mole fraction)
Would you mind answering with just the numeric figure?

Ask: // solubility (mole fraction) lookup, key: `C=CC(=O)N1CCC[C@@H](n2nc(-c3ccc(Oc4ccccc4)cc3)c3c(N)ncnc32)C1`
Reply: 0.00548

* * *

Conditions: in acetonitrile, 283.15 K
measured_metric: solubility (mole fraction)
Would you mind answering with just the numeric figure?

Ask: // solubility (mole fraction) lookup, key: `C=CC(=O)N1CCC[C@@H](n2nc(-c3ccc(Oc4ccccc4)cc3)c3c(N)ncnc32)C1`
Reply: 0.000819

* * *

Details: in 2-butanone, 318.15 K
measured_metric: solubility (mole fraction)
Would you mind answering with just the numeric figure?

Ask: // solubility (mole fraction) lookup, key: `C=CC(=O)N1CCC[C@@H](n2nc(-c3ccc(Oc4ccccc4)cc3)c3c(N)ncnc32)C1`
Reply: 0.0181
